Some compounds, each annotated with its measured TGI.
- System: DMS 114 small cell lung
- test_name: NCI tumour cell line growth inhibition, 48 h

Recorded results for 3 compounds are shown here.
| compound | TGI |
| --- | --- |
| Cc1cc(Cl)ccc1NC(=O)C(=O)Cc1occc(=O)c1O | > 100 µM |
| CCN(CC)CCC(=O)O[C@H]1CC[C@H](CC(C)[C@H]2CC(=O)C(C)C=C(C)[C@H](OC(=O)CCN(CC)CC)C(OC)C(=O)[C@@H](C)CC(C)/C=C/C=C/C=C(C)C(OC)CC3CC[C@H](C)[C@](O)(O3)C(=O)C(=O)N3CCCCC3C(=O)O2)CC1OC (some centres undefined) | 1.54 µM |
| CC1(C)N=C(Oc2ccccc2)n2nccc2N1 | > 100 µM |

With those in mind, consider the next compound.
### Prompt Give the reported TGI for CCCOP(=S)(N1CC1)N1CC1 (system: DMS 114 small cell lung).
### Response > 100 µM
